Test: protein stability index of a GFP-peptide fusion (GPS, HEK-293T) (PSI 1-6); higher = more stable;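 further: 24-mer peptide tiles fused after GFP, lentivirally expressed, FACS-sorted into six equal bins by GFP/DsRed ratio, decoded by Illumina sequencing, PSI is the read-weighted mean bin number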
Details: treatment: MLN4924 1 uM, 8 h; c terminus: a fixed tail appended
observation_type: protein stability index

>>> recorded_measurement("ERRRELVRSQTLPRTSEAQARKAL [SMTNL2]")
5.27
>>> recorded_measurement("LPSWAELLRPKYRAPQGCSGVDEC [PBXIP1]")
2.69
>>> recorded_measurement("HGAHINLQSLKFQGGHGPAATLLR [RIPK4]")
3
>>> recorded_measurement("SYSAGDSGDAAAQPAFTGIKGKEG [EPB41L3]")
5.3
>>> recorded_measurement("FIVLFLLWPFAWLQVAGLSEEQLQ [LPCAT4]")
3.05
>>> recorded_measurement("KMTLTQVSTWFANARRRLKKENKM [IRX6]")
3.02
>>> recorded_measurement("TGGQTVVNPWIIIGGVATVVCQPN [SEPHS2]")
2.62
>>> recorded_measurement("QEYQVLLDVRARLECEINTYRSLL [KRT33B]")
2.19
>>> recorded_measurement("MEQFCWPHLRSFCETCVGSWSIQM")
2.49
>>> recorded_measurement("TPPHLTSAMAENILAAACESETRK [NOL4L]")
4.35
>>> recorded_measurement("ERPMYGRDSAYQSITHYRPVSASR [EMD]")
3.76
>>> recorded_measurement("LSESETGPMEEVERQVLPDPEVLE [PBXIP1]")
5.61
>>> recorded_measurement("MHRLGEPQARMREENMERIGEEVR [BEX1]")
5.2
>>> recorded_measurement("LSKSRENPEEDEDQRNPAKESLET [SOAT1]")
5.66
>>> recorded_measurement("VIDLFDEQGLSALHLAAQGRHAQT [RIPK4]")
2.87
>>> recorded_measurement("SFQMSEGSEAAVIPLDLGCTQVTQ [FAM189A2]")
4.43
>>> recorded_measurement("SGAGHGSGSGSGPGCGSVPGSGSG [SPAG8]")
4.96
>>> recorded_measurement("SGGSSSSFRAGSKGLSGGFGSRSL [KRT71]")
3.14
>>> recorded_measurement("PQDLAPQVSAHHRSQESLTSQESE [TBC1D10A]")
5.56
>>> recorded_measurement("LYQRAPRNIHRHVILSEIKEAVAA [TCF25]")
2.7
>>> recorded_measurement("SRSESPPPLSDPKQAKVVARRESG [BRD3]")
5.24
>>> recorded_measurement("REVAKELGIPYYETSVVAQFGIKD [RHOBTB2]")
3.39
>>> recorded_measurement("AALRLHRLLRDSEAFCHANCSGPA [P3H4]")
2.27
>>> recorded_measurement("FRKEIKSKSADNQEYFERHRWPPV [RHOBTB1]")
3.26
>>> recorded_measurement("LMCFDPDTDKWIQKAPMTTVRGLH [KLHL13]")
2.64
>>> recorded_measurement("NLVAGCLQLNARSFMMGQGGEAAH [NEUROD6]")
2.02
>>> recorded_measurement("ESKKHQVETAFERLQQELEQQRCL [TRIM15]")
4.53
